The measurements presented in this section are drawn from patent US11691992B2.

- Tested on: STIB719/ILRAD560 T. vivax (drug sensitive) strain
- test_details: Ex vivo Alamar Blue 48 h drug sensitivity assay for T. vivax
- Type: cell-based
- assay_setup: Trypanosoma vivax, ex vivo bloodstream forms from mouse, 45 hrs + 3 hrs resazurin, read-out: IC50: I Hypoxanthine Incorporation T. vivax STIB 719/ILRA D 560, 2 d
pIC50: −log10 of the molar value.
Reported pIC50 values for a set of compounds

Please review the following examples before continuing.
| smiles_record | pIC50 |
| --- | --- |
| O=C(Nc1ccc2c(c1)B(O)OC2)c1nnn(-c2ccccn2)c1CO | > 6.70 |
| O=C(Nc1ccc2c(c1)B(O)OC2)c1nnn(-c2ccccn2)c1CC(F)(F)F | 6.30 to 6.70 |
| Cc1c(C(=O)Nc2ccc3c(c2)B(O)OC3)nnn1-c1cccc(C(F)(F)F)n1 | 6.30 to 6.70 |
| Cc1c(C(=O)Nc2ccc3c(c2)B(O)OC3)nnn1-c1cccc(C(F)(F)F)c1 | 5.00 to 6.29 |
| Cc1c(C(=O)Nc2ccc3c(c2)B(O)OC3)nnn1-c1ccc(Cl)cn1 | 5.00 to 6.29 |

// CC1(C)OB(O)c2cc(NC(=O)c3cn(-c4ccccn4)nn3)ccc21 : pIC50 value = 5.00 to 6.29

// Cc1c(C(=O)Nc2ccc3c(c2)B(O)OC3(C)C)nnn1-c1ccccn1 : pIC50 value = 5.00 to 6.29

// COCc1c(C(=O)Nc2ccc3c(c2)B(O)OC3)nnn1-c1ccccn1 : pIC50 value = > 6.70

---

- Test system: bloodstream forms of T. b. rhodesiense STIB 900
- test_details: T. brucei rhodesiense STIB 900 growth inhibition assay
- Assay type: cell-based
- assay_setup: Trypanosoma brucei; bloodstream forms, 72 h, Alamar Blue; protocol of Example 110; read-out: IC50: I Org. Growth T. brucei rhodesiense STIB 900, 3 d
Reported IC50 values for a set of molecules

Please review the following examples before continuing.
| smiles_record | IC50 |
| --- | --- |
| Cn1nc(C(=O)Nc2ccc3c(c2)B(O)OC3(C)C)nc1-c1ccccc1 | 310 to 10000 nM |
| Cc1c(C(=O)Nc2ccc3c(c2)B(O)OC3(C)C)nnn1-c1ccccn1 | 310 to 10000 nM |
| Cc1c(C(=O)Nc2ccc3c(c2)B(O)OC3)nnn1-c1cccnc1 | 310 to 10000 nM |
| O=C(Nc1ccc2c(c1)B(O)OC2)c1nnn(-c2ccccc2F)c1C(F)(F)F | 100 to 300 nM |
| Cc1c(C(=O)Nc2ccc3c(c2)B(O)OC3)nnn1-c1ncccc1Cl | 100 to 300 nM |

Value (IC50, bloodstream forms of T. b. rhodesiense STIB 900) for record Cc1c(C(=O)Nc2ccc3c(c2)B(O)OC3)nnn1-c1ccc(Cl)cn1 = < 100 nM

Value (IC50, bloodstream forms of T. b. rhodesiense STIB 900) for record Cc1nn(-c2ccccc2)nc1C(=O)Nc1ccc2c(c1)B(O)OC2 = 100 to 300 nM

Value (IC50, bloodstream forms of T. b. rhodesiense STIB 900) for record Cc1cccc(-n2nnc(C(=O)Nc3ccc4c(c3)B(O)OC4)c2C)n1 = 100 to 300 nM

Value (IC50, bloodstream forms of T. b. rhodesiense STIB 900) for record CC1(C)OB(O)c2cc(NC(=O)c3cn(-c4ccccn4)nn3)ccc21 = 310 to 10000 nM

---

- Tested on: IL3000 T. congolense (drug sensitive) strain
- test_details: In vitro Alamar Blue 72 h drug sensitivity assay for T. congolense
- Assay type: cell-based
- assay_setup: Trypanosoma congolense; read-out: inhibition of T. congolense IL-3000 growth at a concentration of 1.0 μM (classes D, E)
Reported inhibition at 1 µM values for a set of compounds

| compound | inhibition at 1 µM |
| --- | --- |
| Cn1nc(C(=O)Nc2ccc3c(c2)B(O)OC3(C)C)nc1-c1ccccn1 [Example 79] | > 75% |
| Cn1nc(-c2ccc(F)cc2)nc1C(=O)Nc1ccc2c(c1)B(O)OC2 [Example 97] | < 75% |

Value (inhibition at 1 µM, IL3000 T. congolense (drug sensitive) strain) for record Cn1nc(C(=O)Nc2ccc3c(c2)B(O)OC3)nc1-c1ccc(Cl)cn1 [Example 77] = > 75%

Value (inhibition at 1 µM, IL3000 T. congolense (drug sensitive) strain) for record Cn1nc(C(=O)Nc2ccc3c(c2)B(O)OC3)nc1-c1ncccc1Cl [Example 76] = > 75%

Value (inhibition at 1 µM, IL3000 T. congolense (drug sensitive) strain) for record Cn1nc(-c2ccccc2)nc1C(=O)Nc1ccc2c(c1)B(O)OC2 [Example 96] = < 75%

Value (inhibition at 1 µM, IL3000 T. congolense (drug sensitive) strain) for record O=C(Nc1ccc2c(c1)B(O)OC2)c1nc(-c2ccccc2)n[nH]1 [Example 101] = > 75%

Value (inhibition at 1 µM, IL3000 T. congolense (drug sensitive) strain) for record COc1cccc(-c2nc(C(=O)Nc3ccc4c(c3)B(O)OC4)nn2C)n1 [Example 75] = > 75%

---

Reported pIC50 values for a set of compounds
- Test system: bloodstream forms of T. b. rhodesiense STIB 900
- test_details: T. brucei rhodesiense STIB 900 growth inhibition assay
- Assay type: cell-based
- assay_setup: Trypanosoma brucei; bloodstream forms, 72 h, Alamar Blue; protocol of Example 110; read-out: IC50: I Org. Growth T. brucei rhodesiense STIB 900, 3 d
pIC50: −log10 of the molar value.

Please review the following examples before continuing.
| compound | property_name | measurement |
| --- | --- | --- |
| O=C(Nc1ccc2c(c1)B(O)OC2)c1cn(-c2cccnc2)nn1 [Example 63] | pIC50 | 6.52 to 7.00 |
| O=C(Nc1ccc2c(c1)B(O)OC2)c1cn(-c2ccccn2)nn1 [Example 61] | pIC50 | > 7.00 |
| Cc1c(C(=O)Nc2ccc3c(c2)B(O)OC3)nnn1-c1ccccn1 [Example 84] | pIC50 | > 7.00 |
| O=C(Nc1ccc2c(c1)B(O)OC2)c1cn(-c2ccc(Cl)cn2)nn1 [Example 59] | pIC50 | 6.52 to 7.00 |
| O=C(Nc1ccc2c(c1)B(O)OC2)c1nnn(-c2cccc(F)c2)c1C(F)(F)F [Example 69] | pIC50 | 6.52 to 7.00 |

// COc1cccc(-c2nc(C(=O)Nc3ccc4c(c3)B(O)OC4)nn2C)n1 [Example 75] : pIC50 value = > 7.00

// COc1cccc(-n2nnc(C(=O)Nc3ccc4c(c3)B(O)OC4)c2C)n1 [Example 65] : pIC50 value = > 7.00

// O=C(Nc1ccc2c(c1)B(O)OC2)c1nnn(-c2cccnc2)c1C(F)(F)F [Example 71] : pIC50 value = 6.52 to 7.00

// Cn1nc(C(=O)Nc2ccc3c(c2)B(O)OC3)nc1-c1ccccn1 [Example 80] : pIC50 value = 6.52 to 7.00

---

- Test system: STIB719/ILRAD560 T. vivax (drug sensitive) strain
- test_details: Ex vivo Alamar Blue 48 h drug sensitivity assay for T. vivax
- Assay type: cell-based
- assay_setup: Trypanosoma vivax, ex vivo bloodstream forms from mouse, 45 hrs + 3 hrs resazurin, read-out: IC50: I Hypoxanthine Incorporation T. vivax STIB 719/ILRA D 560, 2 d
pIC50: −log10 of the molar value.
property_name: pIC50

| smiles_record | property_name | measurement |
| --- | --- | --- |
| COc1ccccc1-n1nnc(C(=O)Nc2ccc3c(c2)B(O)OC3)c1C | pIC50 | 6.30 to 6.70 |
| O=C(Nc1ccc2c(c1)B(O)OC2)c1nnn(-c2ccccn2)c1C1CC1 | pIC50 | 6.30 to 6.70 |
| Cc1nn(-c2ccccc2)nc1C(=O)Nc1ccc2c(c1)B(O)OC2 | pIC50 | 6.30 to 6.70 |
| O=C(Nc1ccc2c(c1)B(O)OC2)c1cn(-c2ncccc2Cl)nn1 | pIC50 | > 6.70 |

// O=C(Nc1ccc2c(c1)B(O)OC2)c1cn(-c2ccc(F)cc2)nn1 : pIC50 value = 6.30 to 6.70

---

- System: bloodstream forms of T. b. rhodesiense STIB 900
- test_details: T. brucei rhodesiense STIB 900 growth inhibition assay
- Format: cell-based
- assay_setup: Trypanosoma brucei; bloodstream forms, 72 h, Alamar Blue; protocol of Example 110; read-out: IC50: I Org. Growth T. brucei rhodesiense STIB 900, 3 d
property_name: IC50

| molecule | target_or_test_system | property_name | measurement |
| --- | --- | --- | --- |
| O=C(Nc1ccc2c(c1)B(O)OC2)c1cn(-c2ncccc2Cl)nn1 [Example 58] | bloodstream forms of T. b. rhodesiense STIB 900 | IC50 | < 100 nM |

// Cn1nc(C(=O)Nc2ccc3c(c2)B(O)OC3)nc1-c1ccc(Cl)cn1 [Example 77] : IC50 value = 100 to 300 nM

// Cn1c(C(=O)Nc2ccc3c(c2)B(O)OC3)nnc1-c1ccccn1 [Example 73] : IC50 value = 100 to 300 nM

// COc1ccccc1-n1nnc(C(=O)Nc2ccc3c(c2)B(O)OC3)c1C [Example 88] : IC50 value = 100 to 300 nM

// Cc1cccc(-n2cc(C(=O)Nc3ccc4c(c3)B(O)OC4)nn2)n1 [Example 57] : IC50 value = < 100 nM

// O=C(Nc1ccc2c(c1)B(O)OC2)c1nnn(-c2ccc(F)cc2)c1C(F)(F)F [Example 70] : IC50 value = 310 to 10000 nM

// Cc1cccc(-c2nc(C(=O)Nc3ccc4c(c3)B(O)OC4)nn2C)n1 [Example 74] : IC50 value = 100 to 300 nM

// Cn1nc(C(=O)Nc2ccc3c(c2)B(O)OC3)nc1-c1ncccc1Cl [Example 76] : IC50 value = 100 to 300 nM

// Cc1c(C(=O)Nc2ccc3c(c2)B(O)OC3)nnn1-c1cccc(C(F)(F)F)c1 [Example 87] : IC50 value = 100 to 300 nM

// Cn1nc(C(=O)Nc2ccc3c(c2)B(O)OC3)nc1-c1ccccc1 [Example 102] : IC50 value = < 100 nM

// Cc1c(C(=O)Nc2ccc3c(c2)B(O)OC3(C)C)nnn1-c1ccccc1 [Example 92] : IC50 value = 310 to 10000 nM
